Recorded values, source ChEMBL document CHEMBL4118164.

Catalogue of log10 IC50 readings, one per entry.
target_or_system: Neuraminidase (Influenza A virus, UniProt B4URF0)
Sequence (B4URF0 whole entry): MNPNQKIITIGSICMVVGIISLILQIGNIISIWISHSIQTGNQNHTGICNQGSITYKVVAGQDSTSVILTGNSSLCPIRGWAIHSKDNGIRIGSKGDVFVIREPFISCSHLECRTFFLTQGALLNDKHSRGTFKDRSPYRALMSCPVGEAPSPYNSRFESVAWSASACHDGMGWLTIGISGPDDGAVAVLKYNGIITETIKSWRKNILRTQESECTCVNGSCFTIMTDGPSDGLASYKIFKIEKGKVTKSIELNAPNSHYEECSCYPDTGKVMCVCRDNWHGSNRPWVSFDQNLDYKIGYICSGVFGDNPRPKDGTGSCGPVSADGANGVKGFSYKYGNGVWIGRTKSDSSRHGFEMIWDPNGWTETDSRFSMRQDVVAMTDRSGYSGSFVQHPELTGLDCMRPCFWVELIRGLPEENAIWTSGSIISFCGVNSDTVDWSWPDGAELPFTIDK
Hi team, quick reminder: these entries are log10 of IC50 (µM).

- COc1cccc(S(=O)(=O)NCC(O)/C=C/c2ccccc2)c1 (stereo not drawn): 0.86

// molecule COc1cccc(C(O)CN)c1 (stereo not drawn) , assay Neuraminidase (Influenza A virus, UniProt B4URF0), log10 IC50 value: 3.79

Measured log10 IC50 for this entry CC(C)(C)OC(=O)NCC(O)/C=C/c1ccccc1 (stereo not drawn) on Neuraminidase (Influenza A virus, UniProt B4URF0): 2.03

Lab note: molecule NCC(O)c1ccccc1 (stereo not drawn) tested on Neuraminidase (Influenza A virus, UniProt B4URF0); recorded log10 IC50 was 2.94

Record Cc1ccc(S(=O)(=O)NCC(O)/C=C/c2ccccc2)cc1 (stereo not drawn) ; system Neuraminidase (Influenza A virus, UniProt B4URF0); log10 IC50 = 0.88

log10 IC50 for Neuraminidase (Influenza A virus, UniProt B4URF0) with input CC(C)(C)OC(=O)/N=C(\NCC(O)/C=C/c1ccccc1)NC(=O)OC(C)(C)C (stereo not drawn) equals 2.01

// returns log10 IC50 for N#Cc1ccc(S(=O)(=O)NCC(O)/C=C/c2ccccc2)cc1 (stereo not drawn) with Neuraminidase (Influenza A virus, UniProt B4URF0); value = 1.06

Let me check: N#Cc1ccc(CN(Cc2ccc(C#N)cc2)CC(O)/C=C/c2ccccc2)cc1 (stereo not drawn) , system Neuraminidase (Influenza A virus, UniProt B4URF0), measured log10 IC50 is 1.70

Form field log10 IC50 for item OC(/C=C/c1ccccc1)CN(Cc1ccccc1)Cc1ccccc1 (stereo not drawn) on Neuraminidase (Influenza A virus, UniProt B4URF0): 1.62

----------
target_or_system: Neuraminidase (Influenza A virus, UniProt B4URF0)
Known pIC50 of a selection of molecules
// pIC50 is dimensionless: -log10 of concentration (M)

* COC(=O)c1ccc(S(=O)(=O)NCC(O)/C=C/c2ccccc2)cc1 (stereo not drawn) | 4.88
* O=S(=O)(NCC(O)/C=C/c1ccccc1)c1ccc(Cl)cc1 (stereo not drawn) | 5.04
* COC(=O)c1ccc(C(=O)NCC(/C=C/c2ccccc2)OC(=O)c2ccc(C(=O)OC)cc2)cc1 (stereo not drawn) | 4.39

Quick note, pIC50 for O=S(=O)(NCC(O)/C=C/c1ccccc1)c1ccc(OCc2ccccc2)cc1 (stereo not drawn) landed at 4.95

Reported pIC50 for O=S(=O)(NCC(O)/C=C/c1ccccc1)c1ccc(Br)cc1 (stereo not drawn) was 5.03

// recorded pIC50 for N#Cc1ccc(C(=O)NCC(/C=C/c2ccccc2)OC(=O)c2ccc(C#N)cc2)cc1 (stereo not drawn) : 4.48

Item: COc1ccccc1S(=O)(=O)NCC(O)/C=C/c1ccccc1 (stereo not drawn) | pIC50: 5.10

----------
target_or_system: Neuraminidase (Influenza A virus, UniProt B4URF0)
assay_info: Inhibition of Influenza A H1N1 virus neuraminidase activity preincubated for 2 mins followed by MUNANA substrate addition measured after 30 mins by […]
quantity: pIC50
// pIC50 here means minus log10 of the molar concentration (mol/L)

• NCC(O)/C=C/c1ccccc1 (centres undefined) = 3.68
• NCC(O)c1ccsc1 (centres undefined) = 2.05

The recorded pIC50 for entry COc1ccccc1C(O)CN (centres undefined) equals 2.28

Looking up OC(/C=C/c1ccccc1)CN(Cc1ccc(C(F)(F)F)cc1)Cc1ccc(C(F)(F)F)cc1 (centres undefined) , I found its pIC50 recorded as 4.48
